- Tested on: MDA-N
- METHOD DESCRIPTION: NCI tumour cell line growth inhibition, 48 h

MOLECULE | TGI
CC1(C)OC2C(O)C(CO)OC2(C(F)F)O1 (centres undefined) | > 100 µM
COc1ccc(C2=C(c3ccc(OC)cc3)C(=O)N3CCCC3C2)cc1 (centres undefined) | > 100 µM
Nc1ccn([C@H]2CO[C@@H](CO)[C@@H]2O)c(=O)n1 | > 100 µM
COC12C(COC(N)=O)C3=C(C(=O)C(C)=C(N)C3=O)N1CC1C2N1C (centres undefined) | 35.3 µM

---

- Test system: SK-MEL-5 melanoma
- METHOD DESCRIPTION: NCI tumour cell line growth inhibition, 48 h; in the data active = GI50 below about 0.43 µM; inactive = the rest
Possible outcomes: active, inactive

MOLECULE | EXPERIMENTAL TARGET | DISCRETE LABEL
COc1ccccc1Nc1ncc(-c2ccccc2)o1 | SK-MEL-5 melanoma | inactive
C[C@H](Nc1cc(Cl)nc2c1cnn2[C@@H]1O[C@H](COP(=O)(O)CP(=O)(O)O)[C@@H](O)[C@H]1O)c1ccccc1F | SK-MEL-5 melanoma | inactive
CN(C)CCC(=O)C(=Cc1ccc(O)cc1)C(=O)CCN(C)C | SK-MEL-5 melanoma | inactive
O=S(=O)(Nc1ccc(Cl)cc1Cl)c1ccc(-c2cnc(C3CC3)o2)cc1 | SK-MEL-5 melanoma | inactive
Cc1ccc2c(C3C(C#N)=C(N)Oc4cc5ccccc5cc43)cc(=O)oc2c1 (configuration not stated) | SK-MEL-5 melanoma | inactive
O=[N+]([O-])c1cccc2ccc(N/N=C/c3ccccc3O)nc12 | SK-MEL-5 melanoma | inactive
Oc1ccc(Nc2c3ccccc3nc3occ(Cl)c23)cc1 | SK-MEL-5 melanoma | inactive
Cc1cc(N(CCCNc2ccnc3cc(Cl)ccc23)Cc2ccc3c(c2)OCO3)nc(N2CCOCC2)n1 | SK-MEL-5 melanoma | active
O=[N+]([O-])c1ccc(CI)cc1 | SK-MEL-5 melanoma | inactive
N=C1C(=N)c2ccccc2-c2ccccc21.N=C1C(=N)c2ccccc2-c2ccccc21.N=C1C(=N)c2ccccc2-c2ccccc21.[Cl-].[Ru+2] | SK-MEL-5 melanoma | inactive
CCOC(=O)c1c(-c2ccc(OC)cc2)c(C#N)c2c(C#N)c(N)nn2c1N | SK-MEL-5 melanoma | inactive
O=[P@@]1(c2ccccc2)O[C@H](COCc2ccccc2)[C@@H](OCc2ccccc2)[C@H](OCc2ccccc2)[C@H]1NCc1ccccc1 | SK-MEL-5 melanoma | inactive
